- Test system: MDA-MB-435
- testSummary: NCI tumour cell line growth inhibition, 48 h; in the data active = GI50 below about 0.43 µM; inactive = the rest
Field 'call' accepts TRUE for active, FALSE for inactive

Enquiry: Lab log entry: `O=C(CCCBr)Nc1ccccc1C#C/C=C\C#Cc1ccccc1C(F)(F)F` — outcome as called in the assay?
Return: FALSE

Enquiry: Lab log entry: `Cn1cc(-c2csc(-c3c[nH]c4ccc(F)cc34)n2)c2cccnc21` — outcome as called in the assay?
Return: TRUE

Enquiry: Lab log entry: C=C(C)[C@@H]1/C=C(/C(C)C)CC[C@@]2(C)OC2CC[C@H](C)CC1=O (some centres undefined) — outcome as called in the assay?
Return: FALSE

Enquiry: Lab log entry: `COc1cc(C(=O)/C=C/c2c(-c3cccs3)nc3sccn23)cc(OC)c1OC` — outcome as called in the assay?
Return: FALSE

====

- System: MOLT-4 leukemia
- testSummary: NCI tumour cell line growth inhibition, 48 h
assayMetric: TGI

Enquiry: Consider the molecule shown here: `CCC(=O)Nc1cccc(NC(=O)c2c(Cl)c(Cl)c(Cl)c(Cl)c2-c2nc3ccccc3[nH]2)c1` What is its recorded TGI?
Return: > 100 µM

Enquiry: Consider the molecule shown here: `O=C(CCC(=O)Nc1ccc(Cl)c(Cl)c1)CC(=O)c1ccc(Cl)cc1` What is its recorded TGI?
Return: > 100 µM

Enquiry: Consider the molecule shown here: `COC1=CC(=O)c2c(c(-c3csc(C)n3)cn2C)C1=O` What is its recorded TGI?
Return: > 100 µM

====

- Test system: OVCAR-8 ovarian
- testSummary: NCI tumour cell line growth inhibition, 48 h
assayMetric: GI50

Enquiry: Consider the compound shown here: `COc1cc(/C=C/[N+](=O)[O-])c([N+](=O)[O-])cc1OC` What is its recorded GI50?
Return: 2500 nM

Enquiry: Consider the compound shown here: `Cc1ccc(N(CC(=O)Nc2ccc(S(=O)(=O)NC3CCN(C)CC3)cc2)S(=O)(=O)c2ccc(Cl)cc2)cc1` What is its recorded GI50?
Return: 3610 nM

Enquiry: Consider the compound shown here: `Cn1cc(-c2csc(-c3c[nH]c4ccc(F)cc34)n2)c2cccnc21` What is its recorded GI50?
Return: 2990 nM

Enquiry: Consider the compound shown here: `CCOC(=O)c1cc(C(=O)c2cc(OC)cc(OC)c2)n2nc(C)ccc12` What is its recorded GI50?
Return: 1090 nM

====

Please provide measured TGI for the entries that follow.
- System: HCT-15 colon
- testSummary: NCI tumour cell line growth inhibition, 48 h

Enquiry: Consider the compound shown here: CCc1cccc(C(C)CC)c1NC(=O)CC1C(=O)Nc2ccccc2S1(=O)=O (configuration not stated) What is its recorded TGI?
Return: 48.7 µM

Enquiry: Consider the compound shown here: CC(C)(C)OC(=O)NCC(=O)NC1CC=CCC1NC(=O)CNC(=O)OC(C)(C)C (configuration not stated) What is its recorded TGI?
Return: > 100 µM

Enquiry: Consider the compound shown here: COC(=O)C1=C(OC(=O)/C(=C/c2ccccc2)c2ccc([N+](=O)[O-])cc2)C(C(=O)OC)[C@@]2(O)[C@@H](C(=O)OC)[C@H](C)C[C@@H]1[C@@H]2C(=O)OC (some centres not stated) What is its recorded TGI?
Return: > 100 µM

Enquiry: Consider the compound shown here: `CCN(Cc1cc(F)cc(F)c1)c1ccc(CO)c(Cl)c1` What is its recorded TGI?
Return: 29.9 µM

Enquiry: Consider the compound shown here: `CN(C)/C=N/S(=O)(=O)c1nn2c(C=O)c(-c3ccccc3)nc2s1` What is its recorded TGI?
Return: 45.6 µM

Enquiry: Consider the compound shown here: NC(=O)C1CCCNC1 (configuration not stated) What is its recorded TGI?
Return: > 100 µM

Enquiry: Consider the compound shown here: `COc1cc(/C=C/c2cc(/C=C/c3ccc(O)c(OC)c3)n(C(=O)Cc3ccccc3)n2)ccc1O` What is its recorded TGI?
Return: 3.79 µM

Enquiry: Consider the compound shown here: `O=C(O)Cc1cc(F)ccc1C(=O)O` What is its recorded TGI?
Return: > 100 µM

Enquiry: Consider the compound shown here: CC1COC(c2cn[nH]c2C(N)=O)C1O (configuration not stated) What is its recorded TGI?
Return: > 100 µM

Enquiry: Consider the compound shown here: CCOC(=O)NC(NCC(O)c1ccccc1)(C(F)(F)F)C(F)(F)F (configuration not stated) What is its recorded TGI?
Return: > 100 µM

Enquiry: Consider the compound shown here: `O=C1C(=O)/C(=C/c2ccccc2)CCCCCC/C1=C/c1ccccc1` What is its recorded TGI?
Return: 3.24 µM

Enquiry: Consider the compound shown here: `CCOC(=O)c1ccc(N=C2S/C(=C\C(=S)Nc3ccccc3)N(c3ccccc3)C2=Nc2ccc(C(=O)OCC)cc2)cc1` What is its recorded TGI?
Return: > 100 µM

Enquiry: Consider the compound shown here: `Clc1ccc(-c2nc3ccc(Cl)cc3[nH]2)cc1` What is its recorded TGI?
Return: > 100 µM

Enquiry: Consider the compound shown here: COc1ccc(NC2C(=O)C3(C)CCC2C3(C)C)cc1 (configuration not stated) What is its recorded TGI?
Return: > 100 µM

Enquiry: Consider the compound shown here: `Cc1cc2c(cc1O)[nH]c1cc3c(cc12)C=CC(C)(C)O3` What is its recorded TGI?
Return: > 25 µM

Enquiry: Consider the compound shown here: `O=C(CCC(=O)Nc1ccc(Cl)c(Cl)c1)CC(=O)c1ccc(Cl)cc1` What is its recorded TGI?
Return: > 100 µM

Enquiry: Consider the compound shown here: NC(C/C=C/P(=O)(O)O)C(=O)O (configuration not stated) What is its recorded TGI?
Return: > 100 µM

====

Please provide measured TGI for the entries that follow.
- Test system: SNB-75 CNS
- testSummary: NCI tumour cell line growth inhibition, 48 h

Enquiry: Provide value of TGI for this record tested with SNB-75 CNS: CCOC(=O)/C=C1/Oc2ccccc2C1(C)O (stereo unspecified)
Return: > 100 µM

Enquiry: Provide value of TGI for this record tested with SNB-75 CNS: `CCn1cc(C(=O)O)c(=O)c2ccc(C)nc21`
Return: > 100 µM

Enquiry: Provide value of TGI for this record tested with SNB-75 CNS: COc1cc2c(c(OC)c1OC)CCNC2C1=C(O)COC1=O (stereo unspecified)
Return: > 100 µM

Enquiry: Provide value of TGI for this record tested with SNB-75 CNS: CSc1ccc(C2=NN(c3ccccc3)C(c3ccc(-c4cc(Cl)c(Cl)cc4Cl)o3)C2)cc1 (stereo unspecified)
Return: 85.7 µM

Enquiry: Provide value of TGI for this record tested with SNB-75 CNS: `O=C(O)Cc1cc(F)ccc1C(=O)O`
Return: > 100 µM

Enquiry: Provide value of TGI for this record tested with SNB-75 CNS: `O=C(CCCBr)Nc1ccccc1C#C/C=C\C#Cc1ccccc1C(F)(F)F`
Return: 40.6 µM

Enquiry: Provide value of TGI for this record tested with SNB-75 CNS: `O=C(O)/C(=C/c1ccccc1)c1ccccc1`
Return: > 100 µM

Enquiry: Provide value of TGI for this record tested with SNB-75 CNS: `O=C1c2ccccc2C(=O)N1[C@@H](Cc1ccccc1)C(=O)n1cccc1CO`
Return: > 100 µM

Enquiry: Provide value of TGI for this record tested with SNB-75 CNS: `O=S1(=O)OCCOS(=O)(=O)C1(I)I`
Return: 48.7 µM

Enquiry: Provide value of TGI for this record tested with SNB-75 CNS: COC(=O)N/N=C(/CC1(O)C(=O)Nc2ccc([N+](=O)[O-])cc21)c1ccccc1 (stereo unspecified)
Return: 54.9 µM

Enquiry: Provide value of TGI for this record tested with SNB-75 CNS: `C1CSC2=C(S1)SC1=C(S2)SC(=C2SC3=C(SC4=C(SCCS4)S3)S2)S1`
Return: > 100 µM

====

- System: UACC-257 melanoma
- testSummary: NCI tumour cell line growth inhibition, 48 h
Please provide measured TGI for the entries that follow.

Enquiry: Provide value of TGI for this record tested with UACC-257 melanoma: `CCn1cc(C(=O)O)c(=O)c2ccc(C)nc21`
Return: > 100 µM

Enquiry: Provide value of TGI for this record tested with UACC-257 melanoma: CCOC(=O)NC(NCC(O)c1ccccc1)(C(F)(F)F)C(F)(F)F (stereo not given)
Return: > 100 µM

Enquiry: Provide value of TGI for this record tested with UACC-257 melanoma: `Clc1ccc(-c2nc3ccc(Cl)cc3[nH]2)cc1`
Return: > 100 µM

Enquiry: Provide value of TGI for this record tested with UACC-257 melanoma: `COc1ccc2nccc(/C=C/c3ccc(N(C)C)cc3)c2c1`
Return: > 10 µM

Enquiry: Provide value of TGI for this record tested with UACC-257 melanoma: `O=C1NC(=O)/C(=C/c2ccc3ncccc3c2)S1`
Return: > 25 µM

Enquiry: Provide value of TGI for this record tested with UACC-257 melanoma: `CC[C@H]1CC(=O)c2c(cc3c(c2O)C(=O)c2ccccc2C3=O)[C@@]1(C#N)C(=O)OC(C)(C)C`
Return: 5.55 µM

Enquiry: Provide value of TGI for this record tested with UACC-257 melanoma: `COc1cc2c3c(c1Oc1nnnn1-c1ccccc1)-c1c(ccc4c1OCO4)C[C@H]3N(C)CC2`
Return: 40 µM

Enquiry: Provide value of TGI for this record tested with UACC-257 melanoma: CC(=O)O[C@]1(C)CCC2C(C)C(=O)OC2C2C(C)[C@@H](O)CC21 (stereo not given in full)
Return: > 100 µM

Enquiry: Provide value of TGI for this record tested with UACC-257 melanoma: `COc1cc(/C=C/c2cc(/C=C/c3ccc(O)c(OC)c3)n(C(N)=O)n2)ccc1O`
Return: 9.03 µM

Enquiry: Provide value of TGI for this record tested with UACC-257 melanoma: `C1C[OH+]CCNCC[OH+]CC[OH+]CCN1.O.[Cl-].[Pt+4]`
Return: > 100 µM

Enquiry: Provide value of TGI for this record tested with UACC-257 melanoma: N#CNC1=NC(Cc2ccccc2)C(=O)N1CCc1c[nH]c2ccccc12 (stereo not given)
Return: > 100 µM

Enquiry: Provide value of TGI for this record tested with UACC-257 melanoma: `COc1ccc(Cc2c(N)[nH]c(=O)[nH]c2=O)cc1`
Return: > 100 µM

Enquiry: Provide value of TGI for this record tested with UACC-257 melanoma: COc1cccc2c1C(=O)c1c(O)c3c(c(O)c1C2=O)C[C@@](O)(C(=O)CO)C[C@@H]3OC1CC(N(C)C)C(O)C(C)O1 (stereo not given in full)
Return: 0.153 µM

Enquiry: Provide value of TGI for this record tested with UACC-257 melanoma: `Cn1c([N+](=O)[O-])cnc1/C=C1\Oc2ccc(Br)cc2C1=O`
Return: 4.07 µM

Enquiry: Provide value of TGI for this record tested with UACC-257 melanoma: `O=C(CCCBr)Nc1ccccc1C#C/C=C\C#Cc1ccccc1C(F)(F)F`
Return: > 50 µM

Sourced from PubChem BioAssay (NCI)
